# assayed target: UniProt P23977
# measurement notes: Inhibition of dopamine uptake in synaptosomal preparation in rat corpus striatum, using [3H]dopamine
Would you mind telling me the reported IC50 of each entry?
Respond with the bare value in µM.

# IC50 of `CN[C@H]1CC[C@@H](c2cccc(OC)c2)c2ccccc21` = 5

// IC50 lookup, molecule = `CN[C@@H]1CC[C@@H](c2cccc(OC)c2)c2ccccc21` , result: 0.53

Please fill in: IC50 reported for `N[C@H]1CC[C@@H](c2ccc(C(F)(F)F)cc2)c2ccccc21` = 10

According to the records, this molecule `CN(C)[C@@H]1CC[C@@H](c2ccc(Cl)cc2)c2ccccc21` displays IC50 of 0.38

In plain terms, `N[C@H]1CC[C@@H](c2cccc(C(F)(F)F)c2)c2ccccc21` has a documented IC50 of 4.7

The value of IC50 measured for the molecule `CN(C)[C@@H]1CC[C@@H](c2ccc(C(F)(F)F)cc2)c2ccccc21` turned out to be 9.8

// recorded IC50 for CN[C@H]1CC[C@@H](c2cccc(C(F)(F)F)c2)c2ccccc21 (stereo in doubt; 56) : 9.7

---

Provide the reported pIC50 of each item.
# assayed target: Norepinephrine transporter (Rattus norvegicus, UniProt Q9WTR4)
# Sequence (Q9WTR4 whole entry): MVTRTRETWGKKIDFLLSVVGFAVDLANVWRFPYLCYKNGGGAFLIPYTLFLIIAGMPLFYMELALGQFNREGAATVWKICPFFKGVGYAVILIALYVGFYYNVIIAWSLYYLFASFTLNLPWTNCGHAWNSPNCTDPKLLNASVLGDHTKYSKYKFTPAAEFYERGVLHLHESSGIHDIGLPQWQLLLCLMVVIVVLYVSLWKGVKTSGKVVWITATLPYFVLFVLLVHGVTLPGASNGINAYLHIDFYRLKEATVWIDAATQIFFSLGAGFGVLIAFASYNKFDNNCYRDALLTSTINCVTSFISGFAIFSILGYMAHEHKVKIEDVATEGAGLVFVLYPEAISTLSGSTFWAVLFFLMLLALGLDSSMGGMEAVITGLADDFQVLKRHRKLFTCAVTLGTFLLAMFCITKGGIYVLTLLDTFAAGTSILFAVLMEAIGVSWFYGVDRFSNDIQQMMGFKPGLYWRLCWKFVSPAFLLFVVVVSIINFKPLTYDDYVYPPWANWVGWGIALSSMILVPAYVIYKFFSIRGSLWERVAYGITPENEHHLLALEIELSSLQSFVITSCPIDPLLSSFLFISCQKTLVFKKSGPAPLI
# measurement notes: Inhibition of norepinephrine uptake in synaptosomal preparation fro rat hypothalamus, using [3H]norepinephrine
Recall that pIC50 is obtained by taking minus log10 of the concentration measured in molar.

Lab book: pIC50 of `CN(C)[C@H]1CC[C@@H](c2ccc(C(F)(F)F)cc2)c2ccccc21` noted as 4.85

Sure, the documented pIC50 for CN1Cc2c(N)cccc2C(c2ccccc2)C1 (stereo unspecified) is 7.70

// pIC50 value for `N[C@H]1CC[C@@H](c2cccc(C(F)(F)F)c2)c2ccccc21` : 5.46

Lab book: pIC50 of `CN[C@H]1CC[C@@H](c2ccccc2OC)c2ccccc21` noted as 5.64

According to the records, this compound `CN[C@@H]1CC[C@@H](c2ccc(Oc3ccccc3)cc2)c2ccccc21` displays pIC50 of 5.64

Data point: `CCCCOc1ccc([C@@H]2CC[C@H](NC)c3ccccc32)cc1` ; pIC50 = 6.03

Note to self: pIC50 recorded for `CN[C@H]1CC[C@@H](c2ccc(Oc3ccccc3)cc2)c2ccccc21` was 5.41

Record summary for `COCCCC/C(=N\OCCN)c1ccc(C(F)(F)F)cc1` : reported pIC50 = 5.72

`CN[C@@H]1CC[C@@H](c2ccc(C(F)(F)F)cc2)c2ccccc21` yielded pIC50 of 6.16

The measured pIC50 associated with `CN(C)[C@H]1CC[C@@H](c2cccc(C(F)(F)F)c2)c2ccccc21` reads 6.05

Lab book: pIC50 of `CN[C@H]1CC[C@@H](c2ccc(F)cc2)c2ccccc21` noted as 5.64

---

Provide the reported pIC50 of each item.
# assayed target: Sodium-dependent dopamine transporter (Rattus norvegicus, UniProt P23977)
# Sequence (P23977 whole entry): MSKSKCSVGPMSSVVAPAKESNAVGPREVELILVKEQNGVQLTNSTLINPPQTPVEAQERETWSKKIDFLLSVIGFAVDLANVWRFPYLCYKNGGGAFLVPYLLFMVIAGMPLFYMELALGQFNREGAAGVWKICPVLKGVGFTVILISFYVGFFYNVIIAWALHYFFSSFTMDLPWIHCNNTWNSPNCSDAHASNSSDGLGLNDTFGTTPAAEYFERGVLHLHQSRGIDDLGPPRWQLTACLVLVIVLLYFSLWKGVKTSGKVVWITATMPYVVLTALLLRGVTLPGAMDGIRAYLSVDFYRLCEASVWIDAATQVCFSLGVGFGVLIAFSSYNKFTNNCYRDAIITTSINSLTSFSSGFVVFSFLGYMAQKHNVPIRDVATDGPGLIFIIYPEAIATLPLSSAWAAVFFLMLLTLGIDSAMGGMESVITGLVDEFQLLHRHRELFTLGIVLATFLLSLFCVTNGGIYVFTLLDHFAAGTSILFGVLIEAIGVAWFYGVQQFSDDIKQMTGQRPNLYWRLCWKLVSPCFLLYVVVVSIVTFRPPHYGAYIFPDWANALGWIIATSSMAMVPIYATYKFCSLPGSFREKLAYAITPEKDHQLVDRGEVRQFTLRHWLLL
# measurement notes: Inhibition of dopamine uptake in synaptosomal preparation in rat corpus striatum, using [3H]dopamine
Where a name gives a salt, the structure may show the parent alone.
In simple prose, pIC50 is minus the logarithm base ten of a concentration in moles per litre.

Noted for `CN[C@@H]1CC[C@@H](c2ccc(Cl)c(C(F)(F)F)c2)c2ccccc21` : its pIC50 reads 5.14

The compound `COCCCC/C(=N\OCCN)c1ccc(C(F)(F)F)cc1` showed pIC50 equal to 4.35

Entry under test: `CN(C)[C@H]1CC[C@@H](c2ccccc2)c2ccccc21` . Its pIC50 was 5.00

For record CN[C@@H]1CC[C@@H](c2ccccc2)c2ccccc21 [TAMETRALINE HYDROCHLORIDE] the listed pIC50 is 6.68

Notebook: `CN(C)[C@H]1CC[C@@H](c2cccc(C(F)(F)F)c2)c2ccccc21` , pIC50 read as 5.15

Quick note, pIC50 for CN[C@@H]1CC[C@@H](c2ccccc2)c2ccccc21 (stereo in doubt; 45) [TAMETRALINE] landed at 5.85

`CN[C@H]1CC[C@@H](c2ccc(Cl)c(C(F)(F)F)c2)c2ccccc21` has a reported pIC50 of 5.82

Please fill in: pIC50 reported for `CN[C@H]1CC[C@@H](c2ccc(F)c(OC)c2)c2ccccc21` = 6.07

In plain terms, `CN(C)C/C=C(/c1ccc(Br)cc1)c1cccnc1` has a documented pIC50 of 4.37

For CN[C@H]1CC[C@@H](c2ccc(C(F)(F)F)cc2)c2ccccc21 (stereo in doubt; 55) the compound record lists pIC50 as 5.25

Lab note: CN[C@H]1CC[C@@H](c2cccc(C(F)(F)F)c2)c2ccccc21 (stereo in doubt; 57) gave pIC50 of 5.60

Quick note, pIC50 for `CN(C)[C@H]1CC[C@@H](c2ccc(Cl)c(Cl)c2)c2ccccc21` landed at 5.70

Briefly, pIC50 measured for `CN[C@@H]1CC[C@@H](c2cccc(C(F)(F)F)c2)c2ccccc21` : 5.59

Given item CN[C@H]1CC[C@@H](c2ccccc2)c2ccccc21 (stereo in doubt; 51) , the value recorded as its pIC50 is 4.99

Reported pIC50 of CN[C@H]1CC[C@@H](c2ccc(Cl)c(C(F)(F)F)c2)c2ccccc21 (stereo in doubt; 61) : 6.31

pIC50 reading for `CN(C)[C@@H]1CC[C@@H](c2cccc(C(F)(F)F)c2)c2ccccc21` : 5.21

pIC50 in this record for `CN[C@H]1CC[C@@H](c2ccc(F)cc2)c2ccccc21` : 5.33

Recorded pIC50 (compound `CN[C@H]1CC[C@@H](c2ccc(Br)cc2)c2ccccc21` ): 5.80

Per the record, `CN[C@H]1CC[C@@H](c2ccccc2OC)c2ccccc21` has pIC50 of 4.95

// `CN[C@@H]1CC[C@@H](c2ccc(Cl)cc2Cl)c2ccccc21` : pIC50 value = 5.21
